Entries and their log10 of IC50 values follow.
# SYSTEM UNDER TEST: Histone deacetylase 3/Nuclear receptor corepressor 2 (HDAC3/NCoR2) (Homo sapiens, UniProt O15379)
# Sequence (O15379 whole entry): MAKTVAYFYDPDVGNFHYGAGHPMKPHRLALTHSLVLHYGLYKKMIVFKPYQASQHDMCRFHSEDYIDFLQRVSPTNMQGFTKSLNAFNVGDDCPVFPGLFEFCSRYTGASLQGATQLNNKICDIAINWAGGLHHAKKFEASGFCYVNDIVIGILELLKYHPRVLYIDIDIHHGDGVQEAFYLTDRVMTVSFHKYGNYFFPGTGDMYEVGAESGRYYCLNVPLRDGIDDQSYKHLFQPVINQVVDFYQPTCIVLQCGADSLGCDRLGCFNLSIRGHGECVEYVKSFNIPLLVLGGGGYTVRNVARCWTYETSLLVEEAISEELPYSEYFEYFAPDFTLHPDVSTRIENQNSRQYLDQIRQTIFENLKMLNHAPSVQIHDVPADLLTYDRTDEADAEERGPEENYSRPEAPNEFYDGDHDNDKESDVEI
# Sequence (Q9Y618 whole entry, further chain): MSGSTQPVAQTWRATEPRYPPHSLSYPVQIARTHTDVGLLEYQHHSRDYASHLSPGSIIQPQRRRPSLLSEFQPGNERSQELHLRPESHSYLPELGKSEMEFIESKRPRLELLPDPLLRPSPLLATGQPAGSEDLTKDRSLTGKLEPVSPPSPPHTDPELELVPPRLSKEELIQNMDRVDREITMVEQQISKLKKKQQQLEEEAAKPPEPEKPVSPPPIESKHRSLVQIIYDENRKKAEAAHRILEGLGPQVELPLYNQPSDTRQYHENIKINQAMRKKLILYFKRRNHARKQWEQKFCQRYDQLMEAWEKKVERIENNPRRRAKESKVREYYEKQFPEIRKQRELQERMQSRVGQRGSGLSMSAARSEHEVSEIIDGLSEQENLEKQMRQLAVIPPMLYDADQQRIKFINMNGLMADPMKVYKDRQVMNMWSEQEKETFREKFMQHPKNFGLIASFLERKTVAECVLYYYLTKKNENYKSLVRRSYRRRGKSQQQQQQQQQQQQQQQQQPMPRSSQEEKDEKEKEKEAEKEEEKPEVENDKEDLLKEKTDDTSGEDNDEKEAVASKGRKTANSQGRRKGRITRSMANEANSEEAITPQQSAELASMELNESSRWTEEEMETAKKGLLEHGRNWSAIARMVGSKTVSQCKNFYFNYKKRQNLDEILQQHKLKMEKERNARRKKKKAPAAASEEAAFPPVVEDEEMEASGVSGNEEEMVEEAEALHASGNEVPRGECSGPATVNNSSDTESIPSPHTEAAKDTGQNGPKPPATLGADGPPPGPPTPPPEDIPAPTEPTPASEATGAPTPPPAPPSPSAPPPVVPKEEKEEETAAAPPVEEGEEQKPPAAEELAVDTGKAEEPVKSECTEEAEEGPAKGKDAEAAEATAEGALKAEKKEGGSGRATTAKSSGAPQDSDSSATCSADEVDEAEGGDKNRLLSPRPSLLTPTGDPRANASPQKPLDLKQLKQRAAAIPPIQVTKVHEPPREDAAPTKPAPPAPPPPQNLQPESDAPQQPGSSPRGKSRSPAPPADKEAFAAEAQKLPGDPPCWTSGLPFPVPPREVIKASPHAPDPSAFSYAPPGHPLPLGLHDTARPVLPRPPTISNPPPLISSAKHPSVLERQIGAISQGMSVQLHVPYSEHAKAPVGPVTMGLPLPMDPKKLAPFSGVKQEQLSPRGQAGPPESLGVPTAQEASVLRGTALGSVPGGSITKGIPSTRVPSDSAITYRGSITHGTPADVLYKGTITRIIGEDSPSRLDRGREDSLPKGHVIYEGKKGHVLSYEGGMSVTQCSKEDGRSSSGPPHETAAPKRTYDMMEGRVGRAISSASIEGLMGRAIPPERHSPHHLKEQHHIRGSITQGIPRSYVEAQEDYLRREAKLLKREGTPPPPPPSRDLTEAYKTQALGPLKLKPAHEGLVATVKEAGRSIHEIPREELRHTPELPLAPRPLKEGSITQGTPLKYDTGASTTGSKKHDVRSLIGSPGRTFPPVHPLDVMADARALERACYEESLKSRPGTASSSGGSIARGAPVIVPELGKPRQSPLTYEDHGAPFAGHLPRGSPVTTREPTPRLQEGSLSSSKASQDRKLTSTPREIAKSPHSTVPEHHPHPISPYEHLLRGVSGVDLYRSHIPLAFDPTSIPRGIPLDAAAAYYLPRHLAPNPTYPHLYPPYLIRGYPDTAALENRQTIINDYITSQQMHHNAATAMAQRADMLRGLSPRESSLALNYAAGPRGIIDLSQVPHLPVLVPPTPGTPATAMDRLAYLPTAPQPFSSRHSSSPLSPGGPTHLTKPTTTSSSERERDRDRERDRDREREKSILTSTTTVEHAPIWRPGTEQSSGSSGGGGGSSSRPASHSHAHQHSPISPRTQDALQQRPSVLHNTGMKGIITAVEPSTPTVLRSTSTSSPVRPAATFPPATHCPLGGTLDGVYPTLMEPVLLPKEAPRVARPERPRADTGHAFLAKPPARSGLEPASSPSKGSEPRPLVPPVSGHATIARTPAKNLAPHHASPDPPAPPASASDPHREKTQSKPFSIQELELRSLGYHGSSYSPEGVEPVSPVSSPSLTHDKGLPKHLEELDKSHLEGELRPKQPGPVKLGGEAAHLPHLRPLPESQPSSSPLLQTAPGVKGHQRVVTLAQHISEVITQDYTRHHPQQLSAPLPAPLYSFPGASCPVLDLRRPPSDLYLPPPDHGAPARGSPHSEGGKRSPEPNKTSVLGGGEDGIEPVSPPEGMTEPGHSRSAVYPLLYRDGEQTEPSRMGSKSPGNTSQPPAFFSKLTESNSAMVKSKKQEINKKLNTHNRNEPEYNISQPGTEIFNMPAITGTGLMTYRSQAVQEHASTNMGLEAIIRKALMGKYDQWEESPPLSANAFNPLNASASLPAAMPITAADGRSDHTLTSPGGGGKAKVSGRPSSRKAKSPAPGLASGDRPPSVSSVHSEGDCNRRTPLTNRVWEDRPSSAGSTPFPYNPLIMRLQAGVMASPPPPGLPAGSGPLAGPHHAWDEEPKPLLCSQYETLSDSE
OBSERVABLE: log10 of IC50 (log10 of the value in nM)

molecular_string=CN(C)c1ccc(C(=O)N(CC(=O)NCc2ccccc2)Cc2ccc(C(=O)NNCCC(F)(F)F)cc2)cc1 meas_value=1.57
molecular_string=CCCCCNNC(=O)c1ccc(CN(CC(=O)NCc2ccccc2)C(=O)c2ccc(N(C)C)cc2)cc1 meas_value=1.86
molecular_string=CN(C)c1ccc(C(=O)N(CC(=O)NCc2ccccc2)Cc2ccc(C(=O)NNc3ccccc3)cc2)cc1 meas_value=3.58
molecular_string=CN(C)c1ccc(C(=O)N(CC(=O)NCc2ccccc2)Cc2ccc(C(=O)NNCCCc3ccccc3)cc2)cc1 meas_value=3.08
molecular_string=CC(C)CCNNC(=O)c1ccc(CN(CC(=O)NCc2ccccc2)C(=O)c2ccc(N(C)C)cc2)cc1 meas_value=2.30
